Target: T1, DLG3_3, Q92796
T1 sequence (Q92796 374-475, limits assumed, looked up): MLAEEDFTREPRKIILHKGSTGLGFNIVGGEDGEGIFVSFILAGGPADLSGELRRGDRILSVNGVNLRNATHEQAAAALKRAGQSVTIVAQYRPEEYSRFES
Experiment: holdup assay
Design: key: below the threshold = too weak to quantify, mostly under pKd 3.1 to 4
Details: plain residues with an end cap or a label only (N-terminal biotin on a linker: ado-ado)
Recorded Metric: pKd

Solved cases (5 shown):
| Binder | Recorded Metric | Test Result |
| --- | --- | --- |
| AAVENKVTDL [PLXNB1, O43157] | pKd | below the threshold |
| GTGYDRKDYV [CLDN3, O15551] | pKd | 3.64 |
| MQHQRTHTRV [ZSCAN30, Q86W11] | pKd | 4.3 |
| EKCGKEFSEF [PRKACA, P17612] | pKd | below the threshold |
| IDESKKEWLI [CNTNAP2, Q9UHC6] | pKd | below the threshold |

Qu. Could you please provide reported pKd for NISYRRESAI [KCNJ4, P48050] ? Thanks!
Ans. 3.98

Qu. Could you please provide reported pKd for PPGKHLVTEV [KCNA7, Q96RP8] ? Thanks!
Ans. 4.33

Qu. Could you please provide reported pKd for SFISKKEWYV [NECTIN1, Q15223] ? Thanks!
Ans. below the threshold

Qu. Could you please provide reported pKd for LPAVCYDIDI [PTTG2, Q9NZH5] ? Thanks!
Ans. below the threshold

Qu. Could you please provide reported pKd for ILRKSTTTTV [PRR16, Q569H4] ? Thanks!
Ans. 3.97

Qu. Could you please provide reported pKd for EPQYQPGENL [SRC, P12931] ? Thanks!
Ans. below the threshold

Qu. Could you please provide reported pKd for QSYPSKHDYV [CLDN18, P56856] ? Thanks!
Ans. below the threshold
